Hello, the source for this data is paper PMC5540273, in case you need it.

Tested on: PYK2
Construct: gene PTK2B
protocol.conditions: concentration: 1 μM, replicates: in singlicate; n = 1;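 further: KINOMEscan kinase panel screen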
In this section we review reported %Inh values for a set of molecules.
property: %Inh (%)

molecular.string | quantitative.readout
CCc1ccnc(/C=C/c2n[nH]c3cc(Sc4ccccc4C(=O)NC)ccc23)c1 | 0
c1ccc(-c2cc(-c3c[nH]nc3-c3ccccn3)ccn2)cc1 | 0
Cc1nnc(-c2ccc(C)c(-c3ccc(C(=O)Nc4ccc(NS(C)(=O)=O)cc4)cc3)c2)o1 | 0
CN1c2ccc(CNc3ccc(F)cc3)cc2-c2c(cnn2C)S1(=O)=O | 0
CCc1nc(-c2cccc(C)c2)c(-c2ccnc(NCc3ccccc3)c2)s1 | 9
O=c1cc(N2CCOCC2)nc2n(Cc3cccc(F)c3)ccn12 | 22
Cl.Oc1cccc(Nc2ccnc3cc(-c4ccncc4)ccc23)c1 | 0
COc1ccc(COc2cc(-n3cnc4ccccc43)sc2C(N)=O)cc1 | 0
COc1cc2c(cc1OC[C@@H](O)CO)ncc1c3ccc(C#N)cc3[nH]c21 | 0

----------
Tested on: TAK1
Construct: gene MAP3K7
protocol.conditions: concentration: 1 μM, replicates: in singlicate; n = 1
property: %Inh (%)

molecular.string | property | quantitative.readout
CCn1cnc2c(N)ncnc21 | %Inh | 4
Nc1nc(-c2ccc3c(N)n[nH]c3c2)cc(N2CCCC2)n1 | %Inh | 0
CSc1ccc(-c2cc3ncnc(SCC(=O)O)c3s2)cc1 | %Inh | 18
Fc1ccc(-c2ncn(CCCN3CCOCC3)c2-c2ccccn2)cc1 | %Inh | 0
NS(=O)(=O)CCc1cccc(Nc2nccc(-c3c(-c4cccc(NC(=O)c5c(F)cccc5F)c4)nn4ccccc34)n2)c1 | %Inh | 27

----------
Quick reference for %Inh among some compounds
System: ACVRL1
protocol.conditions: concentration: 1 μM, replicates: in singlicate; n = 1
property: %Inh (%)

compound | quantitative.readout
Nc1nccc(-c2c(-c3ccc(F)cc3)ncn2C2CCN(CC(F)(F)F)CC2)n1 | 0
NS(=O)(=O)c1cccc(-c2ccc3ncc(N4CCOCC4)nc3c2)c1 | 0
[2H]C([2H])(c1cccc(C(F)(F)F)c1C)n1ccn2c(=O)nc(N3CCOCC3)cc12 | 31
O=c1cc(N2CCOCC2)nc2n(Cc3cccc4ccccc34)ccn12 | 0
O=C(NCCNc1ccnc(Nc2ccc(F)cc2)n1)Nc1ccccc1F | 0
CCn1cnc2c(N)ncnc21 | 8
O=c1cc(N2CCOCC2)nc2n(Cc3cccc(C(F)(F)F)c3)ccn12 | 0
O=C(NCCNc1ccnc(Nc2ccc(F)cc2)n1)c1cc2ccccc2s1 | 0
CN1c2ccc(NCc3ccc(F)cc3)cc2-c2c(cnn2C)S1(=O)=O | 7
O=C(NCCCN1CCOCC1)c1cccc(Nc2nccc(Nc3ccc(Oc4ccccc4)cc3)n2)c1 | 0
COc1ccc(COc2cc(-n3cnc4ccccc43)sc2C(N)=O)cc1 | 0
c1ccc(-c2n[nH]cc2-c2ccnc3ccccc23)nc1 | 0
NCC(NC(=O)c1cc(-c2cn[nH]c2)c(-c2ccnc3[nH]ccc23)s1)c1ccccc1.O=C(O)C(F)(F)F.O=C(O)C(F)(F)F (stereo not shown) | 0
Cc1nnc(-c2ccc(C)c(-c3ccc(C(=O)Nc4ccc(NS(C)(=O)=O)cc4)cc3)c2)o1 | 0
CN(C1=C(c2ccccc2)C(=O)NC1=O)c1ccccc1 | 0
NS(=O)(=O)CCc1cccc(Nc2nccc(-c3c(-c4cccc(NC(=O)c5c(F)cccc5F)c4)nn4ccccc34)n2)c1 | 0

----------
Tested on: INSR
protocol.conditions: concentration: 1 μM, replicates: in singlicate; n = 1

compound | %Inh (%)
Cn1cc(-c2ccc3c(c2)CCN3C(=O)Cc2ccccc2Cl)c2c(N)ncnc21 | 48
O=c1cc(N2CCOCC2)nc2n(Cc3cccc(C(F)(F)F)c3)ccn12 | 14
CN(C(=O)c1ccc(-c2cc(-c3c[nH]nc3-c3ccccn3)ccn2)cc1)C1CCOCC1 | 0
NS(=O)(=O)c1cccc(-c2ccc3nccc(-c4cccc(S(N)(=O)=O)c4)c3c2)c1 | 0
COc1ccc(S(=O)(=O)NC2CCN(c3cc(C)nc(Nc4cccc(C#N)c4)n3)CC2)cc1.O=C(O)C(F)(F)F | 0
COc1ccc(COc2cc(-n3cnc4ccccc43)sc2C(N)=O)cc1 | 13
Cc1cn2c(=O)cc(N3CCOCC3)nc2n1Cc1cccc(Cl)c1Cl | 0
NCC(NC(=O)c1cc(-c2cn[nH]c2)c(-c2ccnc3[nH]ccc23)s1)c1ccccc1.O=C(O)C(F)(F)F.O=C(O)C(F)(F)F (centres unmarked) | 3
Cc1cccc(-c2nc(Nc3ccc4ncsc4c3)c3ccccc3n2)n1 | 0
COc1cc2c(cc1OCCN1CCN(C)CC1)ncc1c3ccc(C#N)cc3[nH]c21 | 0
Nc1nc(-c2ccc3c(N)n[nH]c3c2)cc(N2CCCC2)n1 | 0
COc1cc(Nc2nccc(N3CCC(NC(=O)c4cccc(NC(C)=O)c4)C3)n2)cc(OC)c1OC (centres unmarked) | 1
O=c1cc(N2CCOCC2)nc2n(Cc3cccc(F)c3)ccn12 | 0
NS(=O)(=O)CCc1cccc(Nc2nccc(-c3c(-c4cccc(NC(=O)c5c(F)cccc5F)c4)nn4ccccc34)n2)c1 | 39
Nc1nccc(-c2c(-c3ccc(F)cc3)ncn2C2CCN(CC(F)(F)F)CC2)n1 | 0
Cl.Oc1cccc(Nc2ccnc3cc(-c4ccncc4)ccc23)c1 | 0
CCCCCc1nc2c(N)ncnc2n1CCCCC | 0

----------
Test system: EPHA6
protocol.conditions: concentration: 1 μM, replicates: in singlicate; n = 1
Binary call on %Inh with cut-off 10%: strictly below means criterion met, and equality or higher means criterion not met.

molecular.string | category
Cn1ccc2ncnc(Oc3ccc(NC(=O)Nc4ccncc4)c(Cl)c3)c21 | criterion not met
CCc1nc(-c2cccc(C)c2)c(-c2ccnc(NCc3ccccc3)c2)s1 | criterion not met
O=C(Nc1n[nH]c2cc(-c3cccc(F)c3)ccc12)C1CC1 | criterion not met
CCCCCc1nc2c(N)ncnc2n1CCCCC | criterion met
CN(C(=O)c1ccc(-c2cc(-c3c[nH]nc3-c3ccccn3)ccn2)cc1)C1CCOCC1 | criterion met

----------
Test system: PIK4CB
Construct: gene PI4KB
protocol.conditions: concentration: 1 μM, replicates: in singlicate; n = 1

compound | %Inh (%)
Cc1cccc(-c2nc(Nc3ccc4ncsc4c3)c3ccccc3n2)n1 | 28
O=C1Cc2cc(Nc3nc(NCc4cccc(S(=O)(=O)C(F)(F)F)c4)ncc3C(F)(F)F)ccc2N1 | 4
CCn1cnc2c(N)ncnc21 | 1
COc1ccc(Nc2nccc(N3CCC(NC(=O)Nc4cccc(C(C)=O)c4)C3)n2)cc1 (stereo not shown) | 0
Cc1nnc(-c2ccc3ncc(-c4ccc(S(C)=O)cc4)n3c2)o1 (stereo not shown) | 0
Cc1nnc(-c2ccc3occ(-c4ccc(C(C)O)cc4)c3c2)o1 (stereo not shown) | 0
O=C(NCCNc1ccnc(Nc2ccc(F)cc2)n1)Nc1ccccc1F | 13

----------
Reported %Inh is given for each of the following compounds.
Tested on: EPHA5
protocol.conditions: concentration: 1 μM, replicates: in singlicate; n = 1

compound | target.of.assay | %Inh (%)
CSc1ccc(-c2cc3ncnc(SCC(=O)O)c3s2)cc1 | EPHA5 | 13
Cc1c(Cn2c(C)nn3c(=O)cc(N4CCOC(C)C4)nc23)cccc1C(F)(F)F (stereo not shown) | EPHA5 | 0
Cc1cccc(-c2nc(Nc3ccc4ncsc4c3)c3ccccc3n2)n1 | EPHA5 | 6
O=c1cc(N2CCOCC2)nc2n(Cc3cccc4ccccc34)ccn12 | EPHA5 | 0
COc1ccc(Nc2nccc(N3CCC(NC(=O)Nc4cc(C)ccc4C)C3)n2)cc1 (stereo not shown) | EPHA5 | 0
CC(C)(C)n1cnc2c(N)ncnc21 | EPHA5 | 0
Cc1ccc(NC(=O)c2ccnc(N3CCN(C)CC3)c2)cc1-c1ccc(C(=O)NCC2CC2)cc1 | EPHA5 | 0
Cc1ccc(C(=O)NCC(N)=O)cc1-n1c(C)cc(OCc2ccc(F)cc2F)c(Br)c1=O | EPHA5 | 0
COc1cc2c(cc1OC[C@@H](O)CO)ncc1c3ccc(C#N)cc3[nH]c21 | EPHA5 | 11
CN1c2ccc(NCc3ccc(F)cc3)cc2-c2c(cnn2C)S1(=O)=O | EPHA5 | 0
NS(=O)(=O)c1cccc(-c2ccc3nccc(-c4cccc(S(N)(=O)=O)c4)c3c2)c1 | EPHA5 | 2
Fc1ccc(-c2ncn(CCCN3CCOCC3)c2-c2cccnc2)cc1 | EPHA5 | 11
Cc1nnc(-c2ccc3occ(-c4ccc(C(C)O)cc4)c3c2)o1 (stereo not shown) | EPHA5 | 0
O=c1cc(N2CCOCC2)nc2n(Cc3cccc(C(F)(F)F)c3)ccn12 | EPHA5 | 0
Cl.Nc1ncnc2occ(-c3ccc(NC(=O)Nc4cc(C(F)(F)F)ccc4F)cc3)c12 | EPHA5 | 91.5
O=C(NCCCN1CCOCC1)c1cccc(Nc2nccc(Nc3ccc(Oc4ccccc4)cc3)n2)c1 | EPHA5 | 0
C[C@@H](Oc1cc(-n2cnc3ccc(NC(=O)NC(C)(C)C)cc32)sc1C(N)=O)c1ccccc1Cl | EPHA5 | 0
Cc1nnc(-c2ccc(C)c(-c3ccc(C(=O)Nc4ccc(NS(C)(=O)=O)cc4)cc3)c2)o1 | EPHA5 | 0
CNc1ncnc2[nH]ncc12 | EPHA5 | 0
